- test description: qHTS RealTime-Glo MT Cell Viability Assay in HepG2 cells - 16 hour (AID 1224885); also: nearly all actives have a fitted effect of over 50% in size
- experimental setup: RealTime-Glo luminescence; series mostly up to 76.8 µM
Records with an inconclusive call do not appear. The source made the active and inactive calls. Calls follow the shape of the dose curve; as a rule, active = well fitted cell-killing curve with a large enough effect in the repeat runs; inconclusive = weak or mixed curves; inactive = flat fitted curve, though single readings scatter.
Result category, one only: label 1 (active), label 0 (inactive)

Reference set, count: 3
* Oc1ccc(I)cc1 | label 0
* ClCc1ccc(Cl)cc1Cl | label 0
* Clc1ccc(CO/N=C(\Cn2ccnc2)c2ccc(Cl)cc2Cl)c(Cl)c1 | label 1

Ask: Given "[Cl][Sb]([Cl])[Cl]" , state the outcome it received in this test.
Reply: label 0

====

- target of assay: Acetylcholinesterase (Homo sapiens)
- test description: Acetylcholinesterase (AChE) small molecule antagonists: colormetric cell-based qHTS assay (AID 1347395); also: nearly all actives have a fitted effect of over 30% in size
- experimental setup: SH-SY5Y cells AChE activity, colorimetric (Ellman); series mostly up to 115 µM
Results filed as inconclusive are left out. Calls of active or inactive are those of the source. Calls come from the whole dose curve.
Result category, one only: active, inactive

Reference set, count: 2
- CCCN(CCC)CCc1c[nH]c2ccccc12: inactive
- COc1ccc(OC)c(CC(C)N)c1 (stereo unspecified): inactive

Ask: Given O=C(O)C1C2CCC(O2)C1C(=O)O (stereo unspecified) , state the outcome it received in this test.
Reply: inactive

Ask: Try this molecule too: "CN(C)CCc1c[nH]c2ccc(O)cc12"
Reply: inactive

Ask: Try this molecule too: "C[C@]12CC[C@@H]3c4ccc(OC(=O)N(CCCl)CCCl)cc4CC[C@H]3[C@@H]1CC[C@@H]2O"
Reply: inactive

Ask: Try this molecule too: "O=C(CCCN1CCC2(CC1)C(=O)NCN2c1ccccc1)c1ccc(F)cc1"
Reply: inactive

Ask: Try this molecule too: "O=c1[nH]c2ccccc2n1C1CCN(CCCC(c2ccc(F)cc2)c2ccc(F)cc2)CC1"
Reply: inactive

Ask: Try this molecule too: CC1(C)C(/C=C(\Cl)C(F)(F)F)C1C(=O)OC(C#N)c1cccc(Oc2ccccc2)c1 (stereo unspecified)
Reply: inactive

Ask: Try this molecule too: "CC(C)N1C(=O)N(c2ccccc2)CSC1=NC(C)(C)C"
Reply: inactive

Ask: Try this molecule too: "BrCBr"
Reply: inactive

Ask: Try this molecule too: "CCCCCCCCCCCCBr"
Reply: inactive

Ask: Try this molecule too: "CC(C)OC(=S)S"
Reply: inactive

Ask: Try this molecule too: "CCCCOCN(C(=O)CCl)c1c(CC)cccc1CC"
Reply: inactive

Ask: Try this molecule too: "CN(C)c1ccc(N=Nc2ccccc2)cc1"
Reply: inactive

Ask: Try this molecule too: C[C@H]1CC[C@@H]2[C@@H](C)[C@H]3[C@H](C[C@H]4[C@@H]5CC=C6CC(O[C@@H]7O[C@H](CO)[C@H](O)[C@H](O[C@@H]8O[C@H](CO)[C@@H](O)[C@H](O)[C@H]8O)[C@H]7O[C@H]7O[C@@H](C)[C@H](O)[C@@H](O)[C@H]7O)CC[C@]6(C)[C@H]5CC[C@]34C)N2C1 (stereo partly specified)
Reply: active

Ask: Try this molecule too: CC(C)CC(C)Nc1ccc(Nc2ccccc2)cc1 (stereo unspecified)
Reply: inactive

Ask: Try this molecule too: "Nc1ccc(Sc2ccc(N)cc2)cc1"
Reply: inactive

Ask: Try this molecule too: "Oc1ccc2ccc3cccc4ccc1c2c34"
Reply: inactive

Ask: Try this molecule too: CCCCCCCCCCCCCN1CC(C)OC(C)C1 (stereo unspecified)
Reply: inactive

Ask: Try this molecule too: "ClCc1ccccc1CCl"
Reply: inactive

====

- test description: Caspase-3/7 induction in HepG2 cells by small molecules, qHTS cell viability counter screen (AID 1346981); also: nearly all actives have a fitted effect of over 30% in size
- experimental setup: CellTiter-Fluor fluorescence, 17 h; series mostly up to 92.4 µM
Records with an inconclusive call do not appear. Calls of active or inactive are those of the source. Calls follow the shape of the dose curve; as a rule, active = well fitted cell-killing curve with a large enough effect in the repeat runs; inconclusive = weak or mixed curves, or effect the other way; inactive = flat fitted curve, though single readings scatter.
Result category, one only: active, inactive

* CCCCCCCCCBr | inactive
* CC(Cc1ccc(C(C)(C)C)cc1)CN1C[C@@H](C)O[C@@H](C)C1 (stereo not given in full) | inactive
* CCCN(CCC)CCc1c[nH]c2ccccc12 | inactive

Ask: Given "[Hg+2].[I-].[I-]" , state the outcome it received in this test.
Reply: active

Ask: Try this compound too: "c1cc[c]([Sb]([c]2ccccc2)[c]2ccccc2)cc1"
Reply: inactive

Ask: Try this compound too: "CCC[CH2][Sn]([CH2]CCC)([CH2]CCC)[O]C(=O)c1ccccc1"
Reply: active

Ask: Try this compound too: "N#Cc1ccc(O)cc1"
Reply: inactive

Ask: Try this compound too: CC(C)(C)C(O)/C(=C\c1ccc(Cl)cc1Cl)n1cncn1 (stereo not given)
Reply: active

Ask: Try this compound too: "COc1ccc(OC)c(C=O)c1"
Reply: inactive

====

- target of assay: Peroxisome proliferator-activated receptor gamma (Homo sapiens)
- test description: qHTS assay to identify small molecule agonists of the peroxisome proliferator-activated receptor gamma (PPARg) signaling pathway (AID 743094); also: % is scaled to controls: 0 for no effect and ±100 for the full control effect
- experimental setup: HEK293H PPARg-UAS-bla, beta-lactamase FRET ratio, 17 h; series mostly up to 57 µM
Records with an inconclusive call do not appear. Activity calls are given as the source filed them. Calls follow the shape of the dose curve; as a rule, active = well fitted activation curve with a large enough effect in the signal ratio in the repeat runs (not every such curve was filed as active); inconclusive = weak or mixed curves, or effect the other way; inactive = no such curve, though single readings can be large or run the other way; the % refers to the signal ratio.
Result category, one only: active, inactive

Reference set, count: 2
• CCOc1cc(C(C)(C)C)ccc1C1COC(c2c(F)cccc2F)=N1 (stereo not drawn) = inactive
• Clc1ccc(CO/N=C(\Cn2ccnc2)c2ccc(Cl)cc2Cl)c(Cl)c1 = inactive

Ask: Given COc1cc(N)c(Cl)cc1C(=O)NC1CN2CCC1CC2 (stereo not drawn) , state the outcome it received in this test.
Reply: inactive

Ask: Try this molecule too: "ClC(Cl)=C(Cl)Cl"
Reply: inactive

Ask: Try this molecule too: "CC(C)CCCCCOC(=O)c1ccccc1C(=O)OCCCCCC(C)C"
Reply: inactive

Ask: Try this molecule too: "CN(C)CCc1c[nH]c2ccc(O)cc12"
Reply: inactive

Ask: Try this molecule too: "CC(C)(C)OO"
Reply: inactive

====

- target of assay: Cytochrome P450 1A2 (Homo sapiens)
- test description: Cytochrome P450 Family 1 Subfamily A Member 2 (CYP1A2) small molecule antagonists: luciferase reporter qHTS assay (AID 1671199); also: nearly all actives have a fitted effect of over 50% in size
- experimental setup: P450-Glo CYP1A2 enzyme, luciferin luminescence, 1 h; series mostly up to 115 µM
Records with an inconclusive call do not appear. Activity calls are given as the source filed them. Calls come from the whole dose curve; as a rule, active = well fitted inhibition curve with a large enough effect in the repeat runs; inconclusive = weak or mixed curves; inactive = no such curve, though single readings can be large or run the other way.
Result category, one only: active, inactive

* O=C(CCCN1CCC2(CC1)C(=O)NCN2c1ccccc1)c1ccc(F)cc1 | inactive
* CC(=O)O[C@H]1CC[C@@]2(C)C(=CC[C@@H]3[C@@H]2CC[C@]2(C)C(=O)CC[C@@H]32)C1 | inactive
* O=C(Cl)c1ccc(Cl)cc1 | inactive

Turning now to a further compound:
Ask: Given "C=CC(=O)OCCCCOC(=O)C=C" , state the outcome it received in this test.
Reply: active

====

- test description: qHTS assay to identify small molecule antagonists of the estrogen receptor alpha (ER-alpha) signaling pathway - cell viability counter screen (AID 743074);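 also: HEK293 cells carrying ER-alpha-UAS-bla reporter stimulated with 17beta-estradiol; nearly all actives have a fitted effect of over 45% in size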
- experimental setup: ERalpha-bla HEK293 viability, CellTiter-Glo luminescence, 18 h; series mostly up to 69.4 µM
Records with an inconclusive call do not appear. Activity calls are given as the source filed them. The call rests on the fitted dose curve.
Result category, one only: active, inactive

Reference set, count: 4
* CC[C@H]1C[C@@H]2C[C@H]3c4[nH]c5ccc(OC)cc5c4CCN(C2)[C@@H]13 | inactive
* CN(C)C(=S)[S-].CN(C)C(=S)[S-].[Cu+2] | active
* c1ccc2cc3c(cc2c1)-c1cccc2cccc-3c12 | inactive
* O=C(CBr)c1ccc(O)cc1 | inactive

Ask: Given "CC(=O)[O-].CC(=O)[O-].[Hg+2]" , state the outcome it received in this test.
Reply: active

Ask: Try this compound too: O=C1NCN(c2ccccc2)C12CCN(CC1COc3ccccc3O1)CC2 (configuration not stated)
Reply: inactive

Ask: Try this compound too: "NNC(=O)c1ccccc1"
Reply: inactive

Ask: Try this compound too: "C[C@]12CC[C@@H]3c4ccc(OC(=O)N(CCCl)CCCl)cc4CC[C@H]3[C@@H]1CC[C@@H]2O"
Reply: inactive

====

- test description: qHTS assay to identify small molecule antagonists of the estrogen receptor alpha (ER-alpha) signaling pathway using the BG1 cell line in the presence of 0.1 nM 17-beta-estradiol - cell viability counter screen (AID 1259241); also: nearly all actives have a fitted effect of over 40% in size
- experimental setup: VM7Luc4E2 (BG1) viability, CellTiter-Fluor protease, 22 h, 0.1 nM estradiol agonist added; series mostly up to 92.4 µM
Records with an inconclusive call do not appear. Active and inactive are the calls of the source. Calls come from the whole dose curve; as a rule, active = well fitted cell-killing curve with a large enough effect in the repeat runs; inconclusive = weak or mixed curves, or effect the other way; inactive = flat fitted curve, though single readings scatter.
Result category, one only: True = active, False = inactive

* C[C@@H]1O[C@@H](O[C@@H]2C=C3CC[C@@H]4[C@H](CC[C@]5(C)[C@@H](c6ccc(=O)oc6)CC[C@]45O)[C@@]3(C)CC2)[C@H](O)[C@H](O)[C@H]1O | False
* CC(=O)O[C@H]1CC[C@@]2(C)C(=CC[C@@H]3[C@@H]2CC[C@]2(C)C(=O)CC[C@@H]32)C1 | False
* O=C(CCl)Nc1ccccc1 | True

Ask: Given "O=[N+]([O-])c1c2ccccc2cc2ccccc12" , state the outcome it received in this test.
Reply: False

Ask: Try this compound too: "CC(C)(C)OO"
Reply: False

Ask: Try this compound too: "[Cd+2].[Cl-].[Cl-]"
Reply: False

Ask: Try this compound too: CCC(C)c1cc(C(C)(C)C)cc(-n2nc3ccccc3n2)c1O (centres undefined)
Reply: False

Ask: Try this compound too: "C[C@]12CC[C@H](O)C[C@H]1CC[C@@H]1[C@@H]2C[C@@H](O)[C@]2(C)[C@@H](C3=CC(=O)OC3)CC[C@]12O"
Reply: False

Ask: Try this compound too: "C[C@@H]1CC[C@@]2(OC1)O[C@H]1[C@@H](O)[C@H]3[C@@H]4CC[C@H]5C[C@@H](O[C@@H]6O[C@H](CO)[C@H](O[C@@H]7O[C@H](CO)[C@@H](O)[C@H](O[C@@H]8OC[C@@H](O)[C@H](O)[C@H]8O)[C@H]7O[C@@H]7O[C@H](CO)[C@@H](O)[C@H](O[C@@H]8O[C@H](CO)[C@@H](O)[C@H](O)[C@H]8O)[C@H]7O)[C@H](O)[C@H]6O)[C@H](O)C[C@]5(C)[C@H]4CC[C@]3(C)[C@H]1[C@@H]2C"
Reply: True

Ask: Try this compound too: C[CH2][Hg][N]1C(=O)C2C(C1=O)C1(Cl)C(Cl)=C(Cl)C2(Cl)C1(Cl)Cl (centres undefined)
Reply: True

Ask: Try this compound too: "S=C=Nc1cccc2ccccc12"
Reply: True
